- Subject of test: Beta-secretase 1 (Homo sapiens, UniProt P56817)
- Sequence (P56817 whole entry): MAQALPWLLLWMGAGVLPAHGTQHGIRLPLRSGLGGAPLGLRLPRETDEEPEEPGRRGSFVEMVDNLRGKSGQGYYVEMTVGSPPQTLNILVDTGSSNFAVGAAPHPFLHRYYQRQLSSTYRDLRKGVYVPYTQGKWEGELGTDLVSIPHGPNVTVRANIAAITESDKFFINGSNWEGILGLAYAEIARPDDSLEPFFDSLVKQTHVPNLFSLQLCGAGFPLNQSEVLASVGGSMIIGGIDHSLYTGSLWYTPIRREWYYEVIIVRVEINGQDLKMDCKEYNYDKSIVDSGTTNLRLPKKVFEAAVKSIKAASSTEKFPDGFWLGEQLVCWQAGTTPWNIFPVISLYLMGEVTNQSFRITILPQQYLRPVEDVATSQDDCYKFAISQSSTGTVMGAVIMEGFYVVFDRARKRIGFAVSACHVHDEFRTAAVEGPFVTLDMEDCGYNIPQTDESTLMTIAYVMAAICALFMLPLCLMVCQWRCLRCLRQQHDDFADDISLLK
Readout label: pIC50
The meaning of pIC50 here: minus log10 of the concentration in molar units.

Some entries whose results are on file:
1. COc1cccc(-c2nc(SCC(=O)Nc3nc(-c4cc(Cl)c(N)c(Cl)c4)cs3)[nH]c(=O)c2C#N)c1
5.11
2. CCOc1cccc(-c2nc(SCC(=O)Nc3nc(-c4cc(Cl)c(N)c(Cl)c4)cs3)[nH]c(=O)c2C#N)c1
4.87
3. N#Cc1c(-c2cccc(C(F)(F)F)c2)nc(SCC(=O)Nc2nc(-c3cc(Cl)c(N)c(Cl)c3)cs2)[nH]c1=O
4.87

Then there is this molecule:
Ask: So what does the record say about pIC50 for COc1cccc(-c2nc(SCC(=O)Nc3nc(-c4cc(Cl)c(N)c(Cl)c4)c[nH]3)[nH]c(=O)c2C#N)c1 ?
Reply: 5.49
